- targetDesc: yeast Gal4-DNA binding domain fused to the ligand binding domain of human RORγ (Homo sapiens)
- Construct: host or cells: HEK293t
- Sequence (P51449 269-508 limits assumed): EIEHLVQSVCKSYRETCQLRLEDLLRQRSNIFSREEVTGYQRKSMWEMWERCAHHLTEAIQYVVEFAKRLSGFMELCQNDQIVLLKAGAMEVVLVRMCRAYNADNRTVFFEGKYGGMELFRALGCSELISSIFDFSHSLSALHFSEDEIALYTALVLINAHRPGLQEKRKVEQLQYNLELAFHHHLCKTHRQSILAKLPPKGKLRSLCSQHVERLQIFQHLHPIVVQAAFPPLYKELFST
- assayText: RORγ Reporter Assay (Gal4)
- Type: cell-based
- setupConditions: RORγ Reporter Assay (Gal4) at 0.1 μM; values given as lower bounds of ranges
Below: a set of entries, each annotated with reported Gal4 activity range @ 0.1 μM (% inhibition).
quantityKind: Gal4 activity range @ 0.1 μM (% inhibition)

{"columns": ["molecule", "result"],
 "data": [
  ["O=S1(=O)CCOC(CNc2ncnc(N3CCC[C@@H]3c3ccc(C(F)(F)F)cc3)c2F)C1 (stereo partly drawn)", ">0 % inhibition"],
  ["CC1(c2ccc(C(F)(F)F)cc2)CCCN1c1ncnc(NCc2ccc(CC(N)=O)cc2)c1F (stereo not drawn)", ">50 % inhibition"],
  ["Fc1c(NCc2ccc(Cl)nc2)ncnc1N1CCC[C@@H]1c1ccc(C(F)(F)F)cc1", ">50 % inhibition"],
  ["Fc1c(NC[C@H]2CC[C@H](Cc3nnn[nH]3)CC2)ncnc1N1CCC[C@@H]1c1ccc(C(F)(F)F)cc1", ">80 % inhibition"],
  ["NC(=O)Cc1ccc(CNc2ncnc(N3CCOC[C@@H]3c3ccc(OC(F)(F)F)cc3)c2F)cc1", ">50 % inhibition"],
  ["COc1ccnc(CNc2ncnc(N3CCCC3c3ccc(C(F)(F)F)cc3)c2F)c1 (stereo not drawn)", ">20 % inhibition"],
  ["O=C(O)CC1CCC(CNc2ncnc(N3CCOC[C@@H]3c3ccc(C(F)(F)F)cc3)c2F)CC1 (stereo partly drawn)", ">50 % inhibition"],
  ["O=C(O)Cc1ccc(CNc2ncnc(N3CCOCC3c3ccc(OC(F)(F)F)cc3)c2F)cc1 (stereo not drawn)", ">20 % inhibition"],
  ["NC(=O)Cc1ccc(CNc2ncnc(N3CC(=O)CC3c3ccc(C(F)(F)F)cc3)c2F)cc1 (stereo not drawn)", ">0 % inhibition"],
  ["NC(=O)CC1CCC(CNc2ncnc(N3CCOC[C@@H]3c3ccc(OC(F)(F)F)cc3)c2F)CC1 (stereo partly drawn)", ">20 % inhibition"],
  ["Fc1c(NCC2CCOCC2)ncnc1N1CCOC[C@@H]1c1ccc(C(F)(F)F)cc1", ">20 % inhibition"],
  ["OC1(CNc2ncnc(N3CCC[C@@H]3c3ccc(C(F)(F)F)cc3)c2F)CCOC1 (stereo partly drawn)", ">20 % inhibition"]
]}
